Target: UniProt Q08881
Sequence (Q08881 whole entry, looked up): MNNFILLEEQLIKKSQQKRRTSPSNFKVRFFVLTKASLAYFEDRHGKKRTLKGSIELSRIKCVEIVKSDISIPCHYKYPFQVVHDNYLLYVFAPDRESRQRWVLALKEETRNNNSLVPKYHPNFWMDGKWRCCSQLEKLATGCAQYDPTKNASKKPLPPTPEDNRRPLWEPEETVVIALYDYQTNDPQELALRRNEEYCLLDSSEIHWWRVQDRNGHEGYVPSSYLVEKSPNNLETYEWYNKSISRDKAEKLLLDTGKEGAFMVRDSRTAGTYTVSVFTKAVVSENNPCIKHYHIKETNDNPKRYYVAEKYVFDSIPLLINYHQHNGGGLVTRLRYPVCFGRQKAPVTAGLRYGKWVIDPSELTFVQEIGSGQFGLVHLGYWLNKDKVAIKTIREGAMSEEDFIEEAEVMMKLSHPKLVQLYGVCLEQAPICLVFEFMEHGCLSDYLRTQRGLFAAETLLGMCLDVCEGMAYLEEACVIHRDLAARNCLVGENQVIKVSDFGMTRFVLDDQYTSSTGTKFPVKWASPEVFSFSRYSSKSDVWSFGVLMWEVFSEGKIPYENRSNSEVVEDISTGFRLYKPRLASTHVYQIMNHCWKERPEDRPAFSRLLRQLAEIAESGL
Experiment: radiometric filter-binding kinase assay, Kinase HotSpot
Details: compound 0.5 µM; ATP 10 µM
This section presents compounds with their documented residual activity values.
Just the number please, in %, no unit attached.

1. Cc1cc2ncc(-c3ccccc3)nc2cc1C	100
2. CC(C)(C)c1nc2c3ccc(F)cc3c3c(=O)[nH]ccc3c2[nH]1	86
3. O=C1Nc2cc(Br)ccc2/C1=C1/Nc2ccccc2/C1=N\O	46.6
4. Cc1ccc(NC(=O)c2ccc(CN3CCN(C)CC3)cc2)cc1Nc1nc(-c2cccnc2)cs1	98.7
5. O=c1cc(-c2cccc3c2Sc2ccccc2S3)oc(N2CCOCC2)c1	96.6

Now for the compound whose residual activity we want.
IN: Please provide the recorded residual activity for Nc1nc(Nc2ccc(S(N)(=O)=O)cc2)nn1C(=S)Nc1c(F)cccc1F , tested on UniProt Q08881.
OUT: 61

----------
Target: CAMK1G (human)
Experiment: radiometric filter-binding kinase assay, Kinase HotSpot
Details: compound 0.5 µM; ATP 10 µM
Result type: residual activity (%)
Just the number please, in %, no unit attached.

Example entries begin here.
1) Nc1n[nH]c2nnc(-c3c(-c4ccccc4)nn4ccccc34)cc12	99.2
2) CSc1nc(-c2ccc(F)cc2)c(-c2ccnc(NC(C)c3ccccc3)c2)[nH]1 (centres undefined)	98.3

IN: Form field: reported residual activity of CC(C)(C)c1nc2c3ccc(F)cc3c3c(=O)[nH]ccc3c2[nH]1
OUT: 95.3

IN: Form field: reported residual activity of CCCNC(=O)Nc1ccc(Oc2ncnc3cc(OC)c(OC)cc23)cc1Cl
OUT: 103

IN: Form field: reported residual activity of COc1cc2ncnc(Nc3ccc(F)c(Cl)c3)c2cc1OCCCN1CCOCC1
OUT: 103

IN: Form field: reported residual activity of COc1ccc(-c2cnc3c(-c4ccsc4)cnn3c2)cc1
OUT: 100

----------
Molecular target: EPHA1 (human) (UniProt P21709)
Sequence (P21709 whole entry, looked up): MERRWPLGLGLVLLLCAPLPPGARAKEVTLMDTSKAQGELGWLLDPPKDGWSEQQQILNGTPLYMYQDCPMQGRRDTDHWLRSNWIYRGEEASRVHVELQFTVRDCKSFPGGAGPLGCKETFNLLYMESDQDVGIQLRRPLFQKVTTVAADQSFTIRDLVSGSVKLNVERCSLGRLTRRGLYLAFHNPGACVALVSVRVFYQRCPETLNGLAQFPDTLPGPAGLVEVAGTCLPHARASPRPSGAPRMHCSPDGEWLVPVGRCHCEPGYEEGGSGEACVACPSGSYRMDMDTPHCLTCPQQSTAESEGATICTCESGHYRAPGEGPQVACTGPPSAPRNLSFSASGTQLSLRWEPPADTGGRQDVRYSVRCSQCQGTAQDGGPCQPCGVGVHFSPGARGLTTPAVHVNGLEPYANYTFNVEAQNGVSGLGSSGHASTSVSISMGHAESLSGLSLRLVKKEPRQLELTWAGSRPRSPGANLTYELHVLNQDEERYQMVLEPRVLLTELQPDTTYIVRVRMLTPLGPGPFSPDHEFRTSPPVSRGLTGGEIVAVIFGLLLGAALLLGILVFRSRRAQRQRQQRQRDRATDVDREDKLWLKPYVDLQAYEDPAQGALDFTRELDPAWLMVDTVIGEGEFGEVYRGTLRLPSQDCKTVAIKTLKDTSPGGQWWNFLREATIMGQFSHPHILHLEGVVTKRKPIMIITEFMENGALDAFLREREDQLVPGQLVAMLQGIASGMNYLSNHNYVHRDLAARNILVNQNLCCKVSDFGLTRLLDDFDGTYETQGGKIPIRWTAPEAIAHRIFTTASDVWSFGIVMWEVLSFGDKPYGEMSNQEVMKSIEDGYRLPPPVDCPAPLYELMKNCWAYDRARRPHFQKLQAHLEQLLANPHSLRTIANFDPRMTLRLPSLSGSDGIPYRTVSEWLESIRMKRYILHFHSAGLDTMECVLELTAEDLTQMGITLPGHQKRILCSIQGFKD
Test: radiometric filter-binding kinase assay, Kinase HotSpot
Conditions: compound 0.5 µM; ATP 10 µM
Assign 1.0 whenever residual activity does not fall below 90%; assign 0.0 whenever it does.

Below are worked cases with known answers.
1. O=C1Nc2cc(Br)ccc2/C1=C1/Nc2ccccc2/C1=N\O	1.0
2. CC(C)(C)c1nc2c3ccc(F)cc3c3c(=O)[nH]ccc3c2[nH]1	0.0

Pending compound:
IN: Please indicate if the recorded residual activity for CCN1/C(=C/C(C)=O)Sc2ccc(OC)cc21 meets or exceeds 90%.
OUT: 1.0

----------
Biological target: MAP2K1 (human)
Assay: radiometric filter-binding kinase assay, Kinase HotSpot
Details: compound 0.5 µM; ATP 10 µM
Result type: residual activity (%)
Just the number please, in %, no unit attached.

1. NC(=O)c1ccc(N(C(N)=O)c2c(F)cccc2F)nc1-c1ccc(F)cc1F	89
2. CCN1/C(=C/C(C)=O)Sc2ccc(OC)cc21	98.7
3. Nc1n[nH]c2nnc(-c3c(-c4ccccc4)nn4ccccc34)cc12	94.3
4. CCCNC(=O)Nc1ccc(Oc2ncnc3cc(OC)c(OC)cc23)cc1Cl	99.2
5. CC(C)(C)c1nc2c3ccc(F)cc3c3c(=O)[nH]ccc3c2[nH]1	94.9

Now for the compound whose residual activity we want.
IN: Please provide the recorded residual activity for Oc1ccc(-c2nc(-c3ccc(F)cc3)c(-c3ccncc3)[nH]2)cc1 , tested on MAP2K1 (human).
OUT: 93

The measurements presented in this section are drawn from the kinase profiling compilation of Christmann-Franck et al. (2016).
